Measured growth inhibition of individual entries
- protocol.description: NCI Yeast Anticancer Drug Screen. Data for the bub3 strain (AID 167)
- measurement.parameters: S. cerevisiae bub3 mutant strain, at 5.0 µM (retest, dose inferred, filed as 0.5), active compounds read high
About 79,000 compounds went through this panel and 15% of them were active in at least one assay; those are over-represented in the sample as a whole.
Your answer should be a plain number; it is taken to be in %.

Reference set (3 entries):
>>> experimental_value("COc1ccc(C[C@H]2NC[C@H](O)[C@H]2OC(C)=O)cc1")
27
>>> experimental_value("CC([CH2][Hg][Cl])c1ccccc1 (stereo unspecified)")
99
>>> experimental_value("CC(Cl)CN1COc2c3c(c4ccccc4c2C1)CN(CC(C)Cl)CO3 (stereo unspecified)")
0

// growth inhibition lookup, compound = CN(C)c1ccc(N=Nc2cccc(C(=O)[O-])c2)cc1.CN(C)c1ccc(N=Nc2cccc(C(=O)[O-])c2)cc1.NC1CCCCC1N.O=[N+]([O-])O.[Pt+4] , result: 45

----------
Measured growth inhibition of individual entries
- protocol.description: NCI Yeast Anticancer Drug Screen. Data for the bub3 strain (AID 167)
- measurement.parameters: S. cerevisiae bub3 mutant strain, at 50.0 µM (retest, dose inferred, filed as 5.0), active compounds read high
The panel holds about 79,000 compounds, 15% with a hit somewhere; the sample as a whole holds those more often.
Your answer should be a plain number; it is taken to be in %.

>>> experimental_value("CC[CH2][Pb]([CH2]CC)([CH2]CC)[O]C(C)=O")
100
>>> experimental_value("CC1=CC2CC(C)=C(CC[C@]3(C)CC[C@H]([C@@H](C)C(=O)O)OO3)C(C)(C)C2CC1 (stereo not given in full)")
98
>>> experimental_value("C1OCC2[CH2][Hg][S][Hg][CH2]C1O2")
96
>>> experimental_value("CN1C2CCC1c1c([nH]c3ccccc13)C2 (stereo not given)")
-1

Alright, here's another compound for you.
// growth inhibition lookup, compound = C=C1C(C)C2C(Cc3ccccc3)NC(=O)C23C(OC(C)=O)/C=C/C(C)(O)CC(C)C/C=C/C3C1O (stereo not given) , result: 99

----------
- protocol.description: NCI Yeast Anticancer Drug Screen. Data for the cln2 rad14 strain (AID 165);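 also: 0% = growth equal to vehicle treated cultures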
- measurement.parameters: S. cerevisiae cln2 rad14 strain, at 5.0 µM (retest, dose inferred, filed as 0.5)
The panel holds about 79,000 compounds, 15% with a hit somewhere; the sample as a whole holds those more often. Calls of active or inactive are those of the source. Rule as the data show it: active = growth inhibition above about 70%; inactive = the rest.
Please reply with one of these outcomes: yes (1) = active, no (0) = inactive

Use the examples below as a reference point.
>>> assigned_label("O=[N+]([O-])c1c[c]([Hg][Cl])c(O)[c]([Hg][Cl])c1")
"yes (1)"
>>> assigned_label("O=[N+]([O-])c1ccc(Br)c([N+](=O)[O-])c1")
"no (0)"
>>> assigned_label("[C-]#[O+].[C-]#[O+].[C-]#[O+].[C-]#[O+].[C-]#[O+].[Mo+2].[Mo+4].[c-]1[c-][c-][cH-][c-]1.[c-]1[c-][c-][cH-][c-]1.c1ccc([PH+](CC[PH+](c2ccccc2)c2ccccc2)c2ccccc2)cc1")
"no (0)"
>>> assigned_label("O=C(N/N=C/c1cc(Br)cc(Br)c1[O-])c1ccccc1O.O=C(N/N=C/c1cc(Br)cc(Br)c1[O-])c1ccccc1O.[Mn+2]")
"yes (1)"
>>> assigned_label("CC[C@@H](C)[C@@H]1NC(=O)C(NC(=O)C(CC(C)C)N(C)C(=O)C2CCCN2C(=O)C(C)O)C(C)OC(=O)C(Cc2ccc(OC)cc2)N(C)C(=O)C2CCCN2C(=O)C(CC(C)C)NC(=O)C(C)C(=O)C(C(C)C)OC(=O)C[C@H]1O (some centres undefined)")
"no (0)"

Record request — test call for COC1CC(C)C(OC)C2=CC(=O)C=C(NC(=O)/C(C)=C/C=C\C(C)C(OC(N)=O)/C(C)=C\C(C)C1OC)C2=O (centres undefined)
yes (1)

Record request — test call for COC(=O)c1ccc([As]=O)cc1N (centres undefined)
no (0)

Record request — test call for C[C@]12CC[C@H]3[C@@H](CCC4=CC(=O)CC[C@@H]43)[C@@H]1CC[C@@H]2OC(=O)N(CCCl)N=O
no (0)

Record request — test call for COc1cc(OC)c(/C=C(\C)[N+](=O)[O-])cc1Br
no (0)

Record request — test call for C1CCC(NCC2CCCO2)CC1 (centres undefined)
no (0)

Record request — test call for [C-]#[O+].[C-]#[O+].[C-]#[O+].[C-]#[O+].[Mo].c1cnc2c(c1)ccc1cccnc12
no (0)

Record request — test call for CCCCCCCCCCC(=O)O.[Pb]
no (0)
